B1: DVL3 (parent)
chain: SDVVDWLYHNVEGFTDRREARKYA

variants of: B1; test: protein stability index of a GFP-peptide fusion (GPS, HEK-293T) (PSI 1-6); higher = more stable; conditions: c terminus: a fixed tail appended;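 also: lentivirally expressed fusions sorted by FACS into six bins by GFP to DsRed ratio, PSI derived from sequencing read proportions per bin multiplied by bin number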
The reader will find reported protein stability index values listed item by item below.
Response field accepts a number only; no unit should be typed.

Worked examples follow.
N10K | 2.34
V11L | 2.03
A20F | 2.28
V3T | 4.13
R17P | 3.33
D2W | 1.64

**Q:** Report protein stability index for `D5A`
**A:** 1.98
